Experiment: yeast display, Sf9 membrane polyspecificity reagent, FACS + sequencing; frameworks hold sequencing errors
observed.property: polyreactivity (PSR sort gate)

QVQLVESGGGLVQAGGSLRLSCAASGSIFSSYAMGWYRQAPGKERELVAGISRRGGSTYYADSVKGRFTISRDNAKNTVYLLMNSLKPEDTAVYYCNARYAGSDLDYWGQGTQVTVSS = high polyreactivity
QVQLVESGGGLVQAGGSLRLSCAASGLTFGFNAMGWYRQAPWKERELDAAISSGGSTYYADSVKGRFTISRDNAKNTVYLQMNSLKPEDTAVYYCAKSGGSSQYWYGYWGQGTQVTVSS = high polyreactivity

----------
Assay: yeast display, Sf9 membrane polyspecificity reagent, FACS + sequencing; frameworks hold sequencing errors
observed.property: polyreactivity (PSR sort gate)

QVQLVESGGGLVQAGGSLRLSCAASGSTFTVYAMGWYRQAPGKERELVAAISWGGGSTNYADSVKGRFTISRDNAKNTVYLQMNSLKPEDTAVYYCNADIDVIIGSWGDYWGQGTQVTVSS = low polyreactivity
QVQLVESGGGLLQAGGSLRLSCAASGRTFATYAMGWYRQAPGKERELVAAITSGGSTNYADSVKGRFTISRDNAKNTVYLQMNSLKPEDTAVYYCNAYKTNRGSGPWYTGRYDYWGQGTQVTVSS = low polyreactivity
QVQLQESGGGLVQAGGSLRLSCAASGTISPLPAMGWYRQAPGKEREFVAGIDTGAITNYADSVKGRFTISRDNAKNTVYLQMNSLIPEDTAVYYCAVFPAAYDYYERYYTYWGQGTQVTVSS = low polyreactivity
QVQLVESGGGVVQAGGSLRLSCAASGRIFIWYDMGWYRQAPGKERELVAAITQSDDITYYADSVKGRFTISRDNAKNTVYLQMNSLKPEDTAVYYCAARVFETSTPYGYWGQGTQVTVSS = low polyreactivity
QVQLVESGGGLVQAGGRLRLSCAASGSNFYENAMVWYRQAPGKERELVADITNSGGSTYYADSVKGRFTISRDNAKNTVYLQMNSLIPEDTAVFYFATDVGYFYTVVGGYDYWGQGTQVTVSS = low polyreactivity

In: What polyreactivity (PSR sort gate) value was documented for this sequence, QVQHVESGGGLVQAGGSLRLSCAASGFIFWKNAMGWYSQAPGKERELVAAITVTGASTYYADSVKGRFTISRDNAKNTVYLQMNSLKPEDTAVYYCAAKTLSVGYVDPDYGRDYWGQGTQVTVSS ?
Out: low polyreactivity

In: Let us now turn to QVQLVETGGGLVQAGGSLRLSCAASGITFFEYAMGWYRQAPGKERELVAGIRYSGSTTYYSDSVKGRFTISRDNAKNTVYLQMNSLKPEDSAVYYCNVDYYSGLYDYYSWGQGTQVTVSS
Out: low polyreactivity

In: Do the same for QVQLVESGGGLVQAGGSLSLSCAAYGRTFTYYAMGWYRPAPGKERELVAVISSGGRTYYADSVKGRFTISRDNAKITVSFQMNSLKPDDKGVYYCNAASPRYLVEYDFWGQGTQVTVSS please
Out: high polyreactivity

In: Entry to check: QVQLVESGGGLVQAGGSLRISCAASGHIFFYYTMGWYRPAPGKERELVAGITIGGSTNYADSVKGRFTISRDNAKNTVSLQMNSLKPEDTAVYYCNVVKYVYIYSYWEYYYWGQGTQVTVSS
Out: low polyreactivity

In: Another sequence to look at: QVQLVESVGGLVQAGGSHRLSCAASGRTFQSNGMGWYRHAPGKERELDAAITWSSGTTYYADSVKGRFTISRDNAKNTVYLQMNSLKPEDTAVYYCAADCGHRNCLYYSGFGYWGQGTQVTVSS
Out: low polyreactivity

In: Next: QFQLVESGGGLVQAGGSLRLSCAASGRTFGFNAMGWYRQAPGKERELVAALSGSGGRTYYADSVQGRFTISRDNAKNTVYLQMNSLKPEDTAVYYCAAGARRGGSGDWGQGTQVTVSS
Out: high polyreactivity

Where do the numbers come from? From the nanobody polyreactivity screen of Harvey et al. (2022).
